Assignment: determine reported Percent Effect for the given compounds.
Target: AMP-activated protein kinase, AMPK (Homo sapiens) (UniProt P54646+O43741+P54619+Q9UGJ0+Q9Y478+Q13131+Q9UGI9)
Experiment: AMP-dependent Kinase enzyme assay. An in vitro enzyme assay that detects ADP turnover that is directly proportional to AMPK activity. This uses naive AMPK that is activated during the assay with MK-8722
Type: functional
Set-up: scale not given: direction of the effect not stated beside the values
Details: 30 µM
One number for each entry, in %.

Solved entries (count: 5):
[
  {
    "compound": "O=C1CCSCC(C(=O)N2CCN(C3CCCCC3)CC2)N1 (centres undefined)",
    "unit of measure": "%",
    "observed": -2.68
  },
  {
    "compound": "O=C(NC1COC2(CCN(Cc3ccccn3)CC2)C1)c1ccccn1 (centres undefined)",
    "unit of measure": "%",
    "observed": -0.85
  },
  {
    "compound": "CN(C)C(=O)C1CCCN1CCCNC(=O)c1ccccc1F (centres undefined)",
    "unit of measure": "%",
    "observed": -4.32
  },
  {
    "compound": "CNS(=O)(=O)c1ccc(C(=O)NCCc2ccccn2)cc1",
    "unit of measure": "%",
    "observed": -0.141
  },
  {
    "compound": "Cc1nn(C)c(C)c1NC(=O)CN1CCc2c(nc(C3CC3)n2C)C1",
    "unit of measure": "%",
    "observed": 0.981
  }
]

Report Percent Effect for every entry below.
1. CCOCCCNC(=O)c1nn(CC)cc1Cl
2. COCCO[C@H]1CCN(C(=O)c2ccc[nH]2)[C@H]1Cc1ccncc1
3. CCC(=O)N1CCC2(COCc3c(C)nc(N(C)C)nc32)C1 (centres undefined)
4. COc1ccc(-c2nc(CN3CCCC3Cn3cccn3)no2)cc1 (centres undefined)
5. COCCc1noc(CNCC2CCCN2c2cccnn2)n1 (centres undefined)
6. COc1ccc(CNC(=O)c2nn(C)c3c2CS(=O)(=O)CC3)cc1OC
7. O=C(O)CCc1cc2n(n1)CCCN(C(=O)c1ccc3cc[nH]c3c1)C2
8. Cn1nc(C#N)c2c1CN(C(=O)c1cccnc1)CCC2

-2.38
12.9
0.948
-5.32
-3.94
4.43
-5.19
-0.491

Report Percent Effect for every entry below.
1. CCN(Cc1ccc2c(c1)OCO2)C(=O)CCc1c(C)nc(C)[nH]c1=O
2. O=C(c1cccs1)N1C[C@H]2CC[C@@]3(N=C(c4ccccc4)NC3=O)[C@H]2C1
3. CCN1CCN(C2CCN(Cc3c(C)noc3C)CC2)C1=O
4. OC1CCCN(Cc2c(-c3ccco3)[nH]c3ncccc23)C1 (centres undefined)

1.51
0.0999
-5.02
-13.3

Report Percent Effect for every entry below.
1. COc1ccnc(C(=O)N2CCCC(c3noc(C)n3)C2)c1 (centres undefined)
2. CN1CCN(c2ncc3c(=O)n(-c4cccc(F)c4)c(=O)[nH]c3n2)CC1
3. CCn1nnc2c1C(COC)CN(Cc1ccsc1)C2 (centres undefined)

1.48
0.333
1.42

====

Assignment: determine reported Percent Effect for the given compounds.
Biological target: Proteasome subunit beta (Trypanosoma cruzi) (UniProt O96673)
Sequence (O96673 as listed by the source): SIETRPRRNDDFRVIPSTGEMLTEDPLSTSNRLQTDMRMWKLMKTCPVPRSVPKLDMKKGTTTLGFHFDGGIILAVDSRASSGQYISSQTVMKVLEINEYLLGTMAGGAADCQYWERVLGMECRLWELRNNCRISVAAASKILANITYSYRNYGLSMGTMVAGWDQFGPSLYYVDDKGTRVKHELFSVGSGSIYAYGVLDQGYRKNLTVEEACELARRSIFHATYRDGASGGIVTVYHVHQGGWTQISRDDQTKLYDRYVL
Assay: Trypanosoma cruzi proteasome chymotrypsin-like activity (TcProtChymo) assay. Further: in the data most compounds retested in dose-response had high values.
Assay type: functional
Set-up: scale not given: direction of the effect not stated beside the values
Conditions: 9.37 µM
Answers are plain numbers, in %.

Solved entries (count: 3):
[
  {
    "compound": "CC1c2ncc(CN3CCN(C)CC3)n2CCN1CC1CC1 (stereo unspecified)",
    "Percent Effect, %": 6.33
  },
  {
    "compound": "Cc1ccc(CN2CCCn3nnc(COCC4CC4)c3C2)s1",
    "Percent Effect, %": 6.96
  },
  {
    "compound": "CN1[C@@H](C(=O)NCC2CC2)C[C@@H]2CN(Cc3ccco3)C[C@@H]21",
    "Percent Effect, %": 19.5
  }
]

Report Percent Effect for every entry below.
1. Cc1nccn1-c1cc(CNC(=O)c2ccccn2)ccn1
2. CC(=O)Nc1nc(CN2CCCC2Cn2cc(C)cn2)cs1 (stereo unspecified)
3. CCn1cc(NC(=O)NCc2ccc3c(c2)OCCO3)cn1

17.6
21.9
7.37

Report Percent Effect for every entry below.
1. CCOc1ccccc1-c1noc(CN2CCCC(O)C2)n1 (stereo unspecified)
2. CN1CC[C@H](c2ccccc2)[C@@H]2[C@H]1CCCCN2C(=O)c1cnccn1
3. COCCN1C[C@@H]2CN(c3ncccn3)C[C@@H]2C1=O
4. COc1ccc(CN2CC[C@H]3[C@H]2CCN3C(=O)c2cnn(C)c2)cc1
5. Cc1nc(C)n(C2CCCN(C(=O)c3ccc(F)cc3F)C2)n1 (stereo unspecified)

1. 1.54
2. 10.8
3. 8.2
4. 12.2
5. 11.2
